I'd be grateful if you could share measured FACS signal for these entries.
# target or system: T1, human CLDN6, endogenously expressed on cancer cell lines (human, UniProt P56747 1-220)
# T1 construct: also called Endogenous CLDN6+; CLDN6 on ARK2, OVCA429, UMUC4 cells
# T1 sequence: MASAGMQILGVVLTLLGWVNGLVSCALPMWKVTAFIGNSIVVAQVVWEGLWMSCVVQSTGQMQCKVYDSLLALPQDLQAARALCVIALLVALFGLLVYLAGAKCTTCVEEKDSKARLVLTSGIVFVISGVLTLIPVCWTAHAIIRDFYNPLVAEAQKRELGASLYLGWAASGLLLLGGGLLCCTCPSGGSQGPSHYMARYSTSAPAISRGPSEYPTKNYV
# experiment notes: FACS, ARK2 cells, 1.5 ug Ab

In: Quote FACS signal reported for AB9-chim (antibody, V domains shown, Parental antibody prior to humanization ('chim'); also called pre-humanized form of AB9) VH: EVQLQQSGPELVKPGASVKMSCKASGYRFTDYNMHWVKQSHGKSLEWIGYINPNNGGTNYNQNFKGKATLTVNKSSSTAYMELRSLTSEDSAAYYCARDYLYFFDCWGQGTTLTVSS VL: DIQMTQSPASQSASLGESVTITCLASQTIGTWLAWYQQKPGKSPQLLIYAAASLADGVPSRFSGSGSGTRFSFKISSLQAEDFVSYYCQQLYSIPRTFGGGTKLEIK please.
Out: 4490

In: Quote FACS signal reported for AB18-4 (antibody, V domains shown, Humanized; also called humanized AB 18-4) VH: QVQLVQSGAEVKKPGASVKVSCKASGYSFTGYNMNWVRQAPGQGLEWMGNIDPYYGGSTYAQKFQGRVTMTVDTSTSTVYMELSSLRSEDTAVYYCARERSGYVFSAMDYWGQGTLVTVSS VL: DIVMTQSPDSLAVSLGERVTMNCKSSQSVLFSSNQKNYLAWYQQKPGQPPKLLIYWASTRESGVPDRFSGSGSGTDFTLTISSVQAEDVAVYYCHQYLSSRTFGQGTKLEIK please.
Out: 1380
